- Measurement Description: Elimination half life in rat at 0.5 mg/kg, iv
- Assay type: ADME, organism-based
- Cond: in vivo, read-out: beta t1/2 (converted)
Quantity: half-life (h)
One number for each entry, in h.

Query string: Which half-life is listed for Cc1ccc(-c2c(C)c3c(c(C)c2[C@H](OC(C)(C)C)C(=O)O)N(S(C)(=O)=O)Cc2cccc(F)c2-3)c(O)c1 ?
Result string: 3.5

---

- System: MT4
- Measurement Description: Cytotoxicity against human MT4 cells assessed as reduction in cell viability by MTT assay
- Assay type: functional
- Cond: Homo sapiens, MT4
Quantity: CC50 (µM)
One number for each entry, in µM.

Solved entries:
Cc1c(-c2ccc3c(c2)CCCO3)c([C@H](OC(C)(C)C)C(=O)O)c(C)c2c1-c1c(F)cccc1CN2S(C)(=O)=O : 29
Cc1ccc(-c2c([C@H](OC(C)(C)C)C(=O)O)c(C)c3[nH]c4ccccc4c3c2C)cc1 : 13
Cc1ccc(-c2c(C)c3c(c(C)c2[C@H](OC(C)(C)C)C(=O)O)N(S(C)(=O)=O)Cc2cccc(C)c2-3)cc1 : 17

Shift focus to the following entry.
Query string: Return reported CC50; argument: Cc1ccc(-c2c(C)c3c(c(C)c2[C@H](OC(C)(C)C)C(=O)O)N(C)Cc2ccccc2-3)cc1
Result string: 8.4
